Tested on: S. aureus ATCC 25923
Assay type: cell-based, Staphylococcus aureus
Conditions: ATCC 25923, 24 h
Ends that are not written are not given here.
Listed next: entries and their corresponding MBC S.a.
Quick reminder: number only, in µM, skip the unit.

Please review the entries below; each comes with its answer.
Exercise: Fill in: MBC S.a of LKRLAKLLKKWIKA [OrP4M] is ___
Solution: 14.1

Exercise: Further, for LAKRWLKLLGKLAK [OrP1M] ?
Solution: 3.9

Exercise: Further, for IGKVWKVAKKLIKI [OrP9M] ?
Solution: 31.1

Exercise: Further, for FKKLLKFLKWLF [VeP1] ?
Solution: 3.5

Exercise: Further, for AGLKKLAKKLGKVVL [OrP3] ?
Solution: 27.8

With those in mind, consider the next sequence.
Exercise: Fill in: MBC S.a of AIVKKIGKIWKNFIK [VeP2M] is ___
Solution: 31.3
